Source: patent US20120065152A1

Assay: Pharmacokinetics of guanfacine and prodrug in rat hepatic portal and tail veins after oral prodrug
Type: in vivo
Details: tail vein (systemic) plasma, 1 mg/kg, read-out: Tail vein Prodrug AUC
Excerpt: The collection of blood from the hepatic portal vein following oral administration allows the analysis of absorbed prodrug and active drug levels prior to first pass metabolism in the liver. Systemic levels can be measured by sampling of blood from the tail vein. Rats were surgically prepared under isofluorane anaesthesia by attaching a silicon catheter to the portal vein then exteriorising it at the nape of the neck with a blood collection port attached. […]
observed-property: AUC
Record the result as a number with its unit.

stdin: // query AUC value for entry CCOC(=O)NC(N)=NC(=O)Cc1c(Cl)cccc1Cl.Cl [Compound 3]
stdout: 88.6 ng·h/mL

----------
Test: Stability studies on guanfacine prodrugs in buffers
Type: physicochemical
Conditions: pH 1.2, 37° C., 0.1M HCl/NaCl buffer, 1 h
Please go through the items and note down their Active drug.
Answers are plain numbers.

Dear colleague, could you please provide Active drug for the compounds listed below?
1. CCCCOC(=O)NC(N)=NC(=O)Cc1c(Cl)cccc1Cl.Cl
2. NC(=NC(=O)Cc1c(Cl)cccc1Cl)NC(=O)OCCO
3. [2H]C([2H])([2H])C([2H])([2H])OC(=O)NC(=N)NC(=O)Cc1c(Cl)cccc1Cl
4. CC(C)COC(=O)NC(N)=NC(=O)Cc1c(Cl)cccc1Cl.Cl
5. Cl.NC(=NC(=O)Cc1c(Cl)cccc1Cl)NC(=O)OCC1CC1
6. CC(C)[C@@H]1CC[C@@H](C)C[C@H]1OC(=O)NC(N)=NC(=O)Cc1c(Cl)cccc1Cl.Cl
7. CC(C)(C)COC(=O)NC(N)=NC(=O)Cc1c(Cl)cccc1Cl.Cl
8. CCCOC(=O)NC(N)=NC(=O)Cc1c(Cl)cccc1Cl.Cl

stdout:
1: 0.0; 2: 0.5; 3: 0.0; 4: 0.0; 5: 0.6; 6: 0.0; 7: 0.0; 8: 0.0

Dear colleague, could you please provide Active drug for the compounds listed below?
1. NC(=NC(=O)Cc1c(Cl)cccc1Cl)NC(=O)OCCCO
2. CCC(C)OC(=O)NC(N)=NC(=O)Cc1c(Cl)cccc1Cl.Cl (stereo not shown)

stdout:
1. 0.0
2. 0.0

----------
Please go through the items and note down their Cmax.
Assay: Comparative bioavailability study of guanfacine in monkeys given guanfacine or guanfacine prodrug
Assay type: in vivo, monkey
Conditions: monkey, plasma, po, 0.5 mg/kg
Numbers only, in ng/mL.

molecule="NC(=NC(=O)Cc1c(Cl)cccc1Cl)NC(=O)OCCCO [Compound 22]" unit_string=ng/mL reading=3.49

Dear colleague, could you please provide Cmax for the molecules listed below?
1. CCOC(=O)NC(N)=NC(=O)Cc1c(Cl)cccc1Cl.Cl [Compound 3]
2. NC(=NC(=O)Cc1c(Cl)cccc1Cl)NC(=O)OCCO [Compound 19]

stdout:
[0.93, 60.8]

----------
Please go through the items and note down their Pro-drug.
Test: Stability studies on guanfacine prodrugs in buffers
Format: physicochemical
Details: pH 7.4, 37° C., 0.1M phosphate buffer, time 0
Numbers only.

As a guide, the following entries are already answered.
molecule="[2H]C([2H])([2H])C([2H])([2H])OC(=O)NC(=N)NC(=O)Cc1c(Cl)cccc1Cl [Compound 13]" observed_property=Pro-drug reading=100
molecule="Cl.NC(=NC(=O)Cc1c(Cl)cccc1Cl)NC(=O)OCC1CC1 [Compound 31]" observed_property=Pro-drug reading=100

Let us move to another entry and its Pro-drug.
stdin: // query Pro-drug value for entry `CC(C)(C)OC(=O)NC(=N)NC(=O)Cc1c(Cl)cccc1Cl.Cl`
stdout: 100
